These data points were gathered from ChEMBL document CHEMBL3102781.

assay: Plasma concentration in mouse at 10 mg/kg, ip after 2 hrs; format: ADME, organism-based; set-up: dose 10 mg/kg, route intraperitoneal
Recorded Endpoint: concentration at 2 h (µM)

1) N#Cc1cccc(-n2nnc(-c3cccnc3)n2)c1 = 11

---

biological target: Neuronal acetylcholine receptor; alpha4/beta2 (Homo sapiens, UniProt P17787+P43681); assay: Positive allosteric modulation of alpha4beta2 nACHR (unknown origin)
Sequence (P17787 whole entry): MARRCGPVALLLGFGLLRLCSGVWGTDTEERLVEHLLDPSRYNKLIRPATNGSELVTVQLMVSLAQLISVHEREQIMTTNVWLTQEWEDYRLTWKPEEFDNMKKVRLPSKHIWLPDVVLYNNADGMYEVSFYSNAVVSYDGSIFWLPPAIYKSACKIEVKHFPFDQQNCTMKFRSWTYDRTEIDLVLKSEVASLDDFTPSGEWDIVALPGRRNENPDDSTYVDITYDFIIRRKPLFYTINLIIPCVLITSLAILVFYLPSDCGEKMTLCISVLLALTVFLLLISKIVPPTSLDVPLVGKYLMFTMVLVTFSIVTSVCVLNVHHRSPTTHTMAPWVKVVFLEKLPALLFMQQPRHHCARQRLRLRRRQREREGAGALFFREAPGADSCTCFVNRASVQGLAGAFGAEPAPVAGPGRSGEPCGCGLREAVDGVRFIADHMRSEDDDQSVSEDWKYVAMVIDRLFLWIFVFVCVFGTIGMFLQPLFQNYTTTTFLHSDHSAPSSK
Sequence (P43681 whole entry): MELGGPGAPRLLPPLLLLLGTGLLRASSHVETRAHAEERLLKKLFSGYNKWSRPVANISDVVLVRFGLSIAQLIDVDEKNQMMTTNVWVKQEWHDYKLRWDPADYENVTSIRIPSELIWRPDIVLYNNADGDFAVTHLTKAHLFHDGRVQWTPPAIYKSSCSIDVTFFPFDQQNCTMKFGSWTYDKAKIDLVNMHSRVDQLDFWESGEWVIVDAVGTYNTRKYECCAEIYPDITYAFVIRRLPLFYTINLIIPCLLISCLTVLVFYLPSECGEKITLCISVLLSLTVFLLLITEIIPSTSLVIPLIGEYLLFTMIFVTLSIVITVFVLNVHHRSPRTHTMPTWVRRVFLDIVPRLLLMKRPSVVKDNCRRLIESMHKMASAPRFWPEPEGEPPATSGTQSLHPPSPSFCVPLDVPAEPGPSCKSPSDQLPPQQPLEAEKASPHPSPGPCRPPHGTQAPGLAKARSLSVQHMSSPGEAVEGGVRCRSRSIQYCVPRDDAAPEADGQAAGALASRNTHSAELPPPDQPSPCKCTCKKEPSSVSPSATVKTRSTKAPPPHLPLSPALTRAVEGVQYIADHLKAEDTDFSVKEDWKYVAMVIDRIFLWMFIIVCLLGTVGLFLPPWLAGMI
pEC50: −log10 of the molar value.
Recorded Endpoint: pEC50

1) N#Cc1cccc(-c2nc(-c3cccnc3)no2)c1 = 6.00

---

test: Cmax in mouse at 2 mg/kg, po; format: ADME, organism-based; design: dose 2 mg/kg, route oral; conditions: in vivo
Recorded Endpoint: Cmax (µM)

1) N#Cc1cccc(-n2nnc(-c3cccnc3)n2)c1 = 4.1
